Numbers sourced from ChEMBL document CHEMBL5649170.

Test: Drug concentration in wildtype mouse brain at 75 ppm administered as rodent chow starting from 1.5 months and measured after 5 months
Assay type: ADME, tissue-based
Details: route po, time 3.5 months, read-out: Ct
MEASURED_PROPERTY: concentration at 2555 h (nM)
Numbers only here, please. The scale is nM.

Prompt: Recorded concentration at 2555 h for `FC(F)(F)c1ccc(CNc2ccc(Cc3c[nH]c4ncc(Cl)cc34)cn2)cn1` , please?
Completion: 300

---

Biological target: Casein kinase I isoform epsilon (Homo sapiens, UniProt P49674)
Sequence (P49674 whole entry, canonical isoform): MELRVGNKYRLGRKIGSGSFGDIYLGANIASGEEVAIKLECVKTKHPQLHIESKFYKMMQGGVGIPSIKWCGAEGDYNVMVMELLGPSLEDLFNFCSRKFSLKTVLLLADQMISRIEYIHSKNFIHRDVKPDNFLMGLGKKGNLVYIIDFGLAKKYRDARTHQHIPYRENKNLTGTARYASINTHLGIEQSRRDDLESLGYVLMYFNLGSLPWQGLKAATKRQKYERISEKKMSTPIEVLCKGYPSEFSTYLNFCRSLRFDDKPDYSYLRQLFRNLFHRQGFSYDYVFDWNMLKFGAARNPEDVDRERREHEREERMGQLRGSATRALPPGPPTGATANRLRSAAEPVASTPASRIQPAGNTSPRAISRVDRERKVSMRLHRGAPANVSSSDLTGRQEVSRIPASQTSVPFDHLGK
Assay: Inhibition of CSNK1E (unknown origin)
MEASURED_PROPERTY: IC50

Prompt: Recorded IC50 for `COc1ncc(F)cc1CNc1ccc(Cc2c[nH]c3ncc(C)cc23)c(F)n1` , please?
Completion: > 1000 nM
